- Tested on: KB-3-1
- Test Details: Cytotoxic Profiling of Annotated Libraries Using Quantitative High-Throughput Screening (AID 1296008); also: % is scaled to controls: 0 for no effect and ±100 for the full control effect
- Run Parameters: Five cell lines viability, CellTiter-Glo ATP luminescence, 48-72 h; stronger effect = lower value
Results filed as inconclusive are left out.
Measurement Kind: max response (%)
Express the result in % but write the number alone.

Worked set:
INSERT INTO results (molecule, experimental_target, measurement_kind, units, val) VALUES
  ('Nc1ncn([C@H]2C[C@H](O)[C@@H](CO)O2)c(=O)n1', 'KB-3-1', 'max response', '%', 9.32),
  ('O=c1c(O)c(-c2cc(O)c(O)c(O)c2)oc2cc(O)cc(O)c12', 'KB-3-1', 'max response', '%', 2.62),
  ('Nc1ccn([C@@H]2O[C@H](CO)[C@@H](O)C2O)c(=O)n1 (stereo partly specified)', 'KB-3-1', 'max response', '%', 21.2);

Recall and state the measured max response for CN(C)CCc1c[nH]c2ccc(Cn3cncn3)cc12 .
8.57

Recall and state the measured max response for O=C(NC(Cc1cc(=O)[nH]c2ccccc12)C(=O)O)c1ccc(Cl)cc1 (stereo unspecified) .
9.29

Recall and state the measured max response for COc1cc2c(cc1OC)C1CC(=O)C(CC(C)C)CN1CC2 (stereo unspecified) .
-0.991

Recall and state the measured max response for CC1(C)C(=O)N(CCN2CCC(C(=O)c3ccc(F)cc3)CC2)c2ccccc21 .
2.39
